Assay target: Proto-oncogene tyrosine-protein kinase Src (Homo sapiens) (UniProt P12931)
Sequence (P12931 2-536 limits assumed): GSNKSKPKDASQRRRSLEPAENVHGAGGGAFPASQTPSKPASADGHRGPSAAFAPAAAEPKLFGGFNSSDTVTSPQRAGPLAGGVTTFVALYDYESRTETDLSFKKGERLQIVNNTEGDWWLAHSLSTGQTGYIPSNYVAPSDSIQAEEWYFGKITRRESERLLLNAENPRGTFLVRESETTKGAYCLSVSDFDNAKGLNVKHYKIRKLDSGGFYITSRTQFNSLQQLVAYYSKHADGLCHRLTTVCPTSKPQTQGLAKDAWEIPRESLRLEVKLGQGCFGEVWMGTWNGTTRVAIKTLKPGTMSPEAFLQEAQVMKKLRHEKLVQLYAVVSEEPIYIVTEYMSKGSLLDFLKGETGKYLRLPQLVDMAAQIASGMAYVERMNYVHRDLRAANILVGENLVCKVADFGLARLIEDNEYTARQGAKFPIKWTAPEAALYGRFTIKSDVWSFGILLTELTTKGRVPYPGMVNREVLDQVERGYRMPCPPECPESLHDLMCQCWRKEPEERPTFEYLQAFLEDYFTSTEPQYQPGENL
Assay text: Inhibition of Src (unknown origin) at 1 uM
Consider the following compounds and their measured inhibition readings.
Property name: inhibition (%)

- Compound string: "CN1CCN(C(=O)Nc2cccc(-c3ccc4c(c3)sc3c(N)ncnc34)c2)CC1"
  Assay target: "Proto-oncogene tyrosine-protein kinase Src (Homo sapiens) (UniProt P12931)"
  Readout unit: "%"
  Numeric result: 71
- Compound string: "Nc1ncnc2c1sc1cc(-c3cccc(C(=O)NCCc4cccnc4)c3)ccc12"
  Assay target: "Proto-oncogene tyrosine-protein kinase Src (Homo sapiens) (UniProt P12931)"
  Readout unit: "%"
  Numeric result: 23
- Compound string: "Nc1ncnc2c1sc1cc(-c3cccc(NC(=O)N4CCCC4)c3)ccc12"
  Assay target: "Proto-oncogene tyrosine-protein kinase Src (Homo sapiens) (UniProt P12931)"
  Readout unit: "%"
  Numeric result: 60
- Compound string: "Nc1ncnc2c1sc1cc(-c3cccc(C(=O)NCC(=O)N4CCOCC4)c3)ccc12"
  Assay target: "Proto-oncogene tyrosine-protein kinase Src (Homo sapiens) (UniProt P12931)"
  Readout unit: "%"
  Numeric result: 45

----------
Each item that follows carries a reported microsomal CLint at 1 µM.
Assay text: In vitro intrinsic clearance in human liver microsomes at 1 uM by LC-MS analysis
Format: ADME
Condition label: read-out: CLH
Property name: microsomal CLint at 1 µM (µL/min/mg)

- Compound string: "Nc1ncnc2c1sc1cc(-c3ccccc3)ccc12"
  Limit qualifier: "="
  Numeric result: 114
- Compound string: "CCNC(=O)Nc1cccc(-c2ccc3c(c2)sc2c(N)ncnc23)c1"
  Limit qualifier: "="
  Numeric result: 24
- Compound string: "Cn1c2cc(-c3ccccc3)ccc2c2ncnc(N)c21"
  Limit qualifier: "="
  Numeric result: 70
- Compound string: "CCNC(=O)Nc1ncc(-c2cc(-c3c(C)cc(OC)cc3C)nc(-c3cnccn3)n2)s1"
  Limit qualifier: "<"
  Numeric result: 5
- Compound string: "CN1CCN(C(=O)Nc2cccc(-c3ccc4c(c3)sc3c(N)ncnc34)c2)CC1"
  Limit qualifier: "="
  Numeric result: 165

----------
Assay text: Solubility of the compound in 0.01 M HCl at pH 2 by nephelometry
Format: physicochemical

- Compound string: "NC(=O)c1cccc(-c2ccc3c(c2)sc2c(N)ncnc23)c1"
  solubility kinetic: "25 µg/mL"
- Compound string: "CN1CCN(C(=O)Nc2cccc(-c3ccc4c(c3)sc3c(N)ncnc34)c2)CC1"
  solubility kinetic: "> 100 µg/mL"
- Compound string: "CCNC(=O)Nc1ncc(-c2cc(-c3c(C)cc(OC)cc3C)nc(-c3cnccn3)n2)s1"
  solubility kinetic: "1.6 µg/mL"
- Compound string: "Nc1ncnc2c1sc1cc(-c3cccc(C(=O)NCC(=O)N4CCOCC4)c3)ccc12"
  solubility kinetic: "50 µg/mL"
- Compound string: "Nc1ncnc2c1sc1cc(-c3cccc(NC(=O)N4CCCC4)c3)ccc12"
  solubility kinetic: "50 µg/mL"

----------
Assay target: CYP3A4 (Homo sapiens)
Sequence (P08684 whole entry): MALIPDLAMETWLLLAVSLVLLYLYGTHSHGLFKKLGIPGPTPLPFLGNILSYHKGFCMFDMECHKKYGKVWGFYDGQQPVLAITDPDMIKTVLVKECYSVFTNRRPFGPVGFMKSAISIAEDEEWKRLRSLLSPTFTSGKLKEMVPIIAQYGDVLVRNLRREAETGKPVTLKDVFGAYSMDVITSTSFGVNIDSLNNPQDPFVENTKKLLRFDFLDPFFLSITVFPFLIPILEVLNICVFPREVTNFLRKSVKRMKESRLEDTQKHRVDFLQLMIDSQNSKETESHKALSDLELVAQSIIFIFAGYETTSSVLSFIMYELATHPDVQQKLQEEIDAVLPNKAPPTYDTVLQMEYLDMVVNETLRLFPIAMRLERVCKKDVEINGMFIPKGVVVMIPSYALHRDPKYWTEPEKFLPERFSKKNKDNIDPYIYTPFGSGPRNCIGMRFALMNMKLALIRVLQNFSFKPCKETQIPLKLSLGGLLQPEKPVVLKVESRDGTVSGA
Assay text: Inhibition of CYP3A4 in human liver microsomes assessed as reduction in apparent rate of formation of metabolites using midazolam or testosterone as substrate at 20 uM by LC-MS analysis
Assay type: ADME
Condition label: probe midazolam or testosterone
Property name: inhibition at 20 µM (%)

- Compound string: "Nc1ncnc2c1sc1cc(-c3cccc(C(=O)NCCc4cccnc4)c3)ccc12"
  Property name: "inhibition at 20 µM"
  Numeric result: 99
- Compound string: "Nc1ncnc2c1sc1cc(-c3cccc(NC(=O)N4CCCC4)c3)ccc12"
  Property name: "inhibition at 20 µM"
  Numeric result: 82
- Compound string: "Nc1ncnc2c1sc1cc(-c3cccc(C(=O)NCC(=O)N4CCOCC4)c3)ccc12"
  Property name: "inhibition at 20 µM"
  Numeric result: 70
- Compound string: "CN1CCN(C(=O)Nc2cccc(-c3ccc4c(c3)sc3c(N)ncnc34)c2)CC1"
  Property name: "inhibition at 20 µM"
  Numeric result: 82
